- System: Nucleic Acid
- assay-procedure: Binding affinity to HIV TAR RNA by electrophoretic mobility shift assay in presence of Escherichia coli tRNA
- Assay type: nucleic-acid assay, Human immunodeficiency virus
readout-type: Kd (nM)
Give just the numeric value; nM need not be written.

Would you please look over these solved cases?
>>> measurement("CNC(=N)NCCC[C@H](NC(=O)[C@H](CCCNC(=N)N)NC(=O)[C@H](CCCNC(=N)N)NC(=O)[C@H](CCC(N)=O)NC(=O)[C@H](CCCNC(=N)N)NC(=O)[C@H](CCCNC(=N)N)NC(=O)[C@H](CCCCN)NC(=O)[C@H](CCCCN)NC(=O)[C@H](CCCNC(=N)N)NC(=O)CNC(=O)[C@H](Cc1ccc(O)cc1)NC(C)=O)C(N)=O")
197
>>> measurement("CC(=O)N[C@@H](Cc1ccc(O)cc1)C(=O)NCC(=O)N[C@@H](CCCNC(=N)N)C(=O)N[C@@H](CCCCN)C(=O)N[C@@H](CCCCN)C(=O)N[C@@H](CCCNC(=N)N)C(=O)N[C@@H](CCCNC(=N)N)C(=O)N[C@@H](CCC(N)=O)C(=O)N[C@@H](CCCNC(=N)N(C)C)C(=O)N[C@@H](CCCNC(=N)N)C(=O)N[C@@H](CCCNC(=N)N)C(N)=O")
398

Input: Read off the recorded Kd for C/N=C(\NC)NCCC[C@H](NC(=O)[C@H](CCCNC(=N)N)NC(=O)[C@H](CCCNC(=N)N)NC(=O)[C@H](CCC(N)=O)NC(=O)[C@H](CCCNC(=N)N)NC(=O)[C@H](CCCNC(=N)N)NC(=O)[C@H](CCCCN)NC(=O)[C@H](CCCCN)NC(=O)[C@H](CCCNC(=N)N)NC(=O)CNC(=O)[C@H](Cc1ccc(O)cc1)NC(C)=O)C(N)=O
Output: 262

Input: Annotate the compound CNC(=N)NCCC[C@H](NC(=O)CNC(=O)[C@H](Cc1ccc(O)cc1)NC(C)=O)C(=O)N[C@@H](CCCCN)C(=O)N[C@@H](CCCCN)C(=O)N[C@@H](CCCNC(=N)N)C(=O)N[C@@H](CCCNC(=N)N)C(=O)N[C@@H](CCC(N)=O)C(=O)N[C@@H](CCCNC(=N)N)C(=O)N[C@@H](CCCNC(=N)N)C(=O)N[C@@H](CCCNC(=N)N)C(N)=O with its measured Kd.
Output: 285

Input: Using known records, supply Kd for CNC(=N)NCCC[C@H](NC(=O)[C@H](CCCNC(=N)N)NC(=O)[C@H](CCCCN)NC(=O)[C@H](CCCCN)NC(=O)[C@H](CCCNC(=N)N)NC(=O)CNC(=O)[C@H](Cc1ccc(O)cc1)NC(C)=O)C(=O)N[C@@H](CCC(N)=O)C(=O)N[C@@H](CCCNC(=N)N)C(=O)N[C@@H](CCCNC(=N)N)C(=O)N[C@@H](CCCNC(=N)N)C(N)=O
Output: 383

Input: Identify the reported Kd for the following entry. CC(=O)N[C@@H](Cc1ccc(O)cc1)C(=O)NCC(=O)N[C@@H](CCCNC(=N)N)C(=O)N[C@@H](CCCCN)C(=O)N[C@@H](CCCCN)C(=O)N[C@@H](CCCNC(=N)N)C(=O)N[C@@H](CCCNC(=N)N)C(=O)N[C@@H](CCC(N)=O)C(=O)N[C@@H](CCCNC(=N)N)C(=O)N[C@@H](CCCNC(=N)N)C(=O)N[C@@H](CCCNC(=N)N(C)C)C(N)=O
Output: 277
